From: ChEMBL document CHEMBL4428077

assay: Drug level in cynomolgus monkey plasma at 3 mg/kg, po measured at 3 hrs post dose by LC-MS/MS analysis; format: ADME, organism-based, Macaca fascicularis
ENDPOINT: concentration at 3 h (ng/mL)
Answer format: numeric, ng/mL implied, no suffix.

Task: Requested field: concentration at 3 h. Item: CC(NC(=O)c1ccc(C(F)(F)F)cc1Cl)C1(N2CCN(S(=O)(=O)c3cn(C)nn3)CC2)CCC(F)(F)CC1.Cl (single isomer, unassigned; (+))
Result: 5.7

---

assay: Protein binding in rat plasma; format: ADME, cell-free; conditions: read-out: PPB (converted)
ENDPOINT: fraction unbound
# print the numeric value only

Task: Requested field: fraction unbound. Item: CC(NC(=O)c1ccc(C(F)(F)F)cc1Cl)C1(N2CCN(S(=O)(=O)c3cn(C)nn3)CC2)CCC(F)(F)CC1.Cl (single isomer, unassigned; (+))
Result: 0.13

---

test: Oral bioavailability in cynomolgus monkey at 5 mg/kg measured up to 24 hrs post dose by LC-MS/MS analysis; assay type: ADME, organism-based, Macaca fascicularis; details: in vivo
ENDPOINT: bioavailability (%)
Answer format: numeric, % implied, no suffix.

Task: Requested field: bioavailability. Item: CC(NC(=O)c1ccc(C(F)(F)F)cc1Cl)C1(N2CCN(S(=O)(=O)c3cn(C)nn3)CC2)CCC(F)(F)CC1.Cl (single isomer, unassigned; (+))
Result: 31

---

test: Volume of distribution at steady state in cynomolgus monkey at 1 mg/kg, iv or 5 mg/kg, po measured up to 12 or 24 hrs post dose by LC-MS/MS analysis; assay type: ADME, organism-based, Macaca fascicularis; conditions: in vivo, read-out: Vdss
ENDPOINT: Vd

Task: Requested field: Vd. Item: CC(NC(=O)c1ccc(C(F)(F)F)cc1Cl)C1(N2CCN(S(=O)(=O)c3cn(C)nn3)CC2)CCC(F)(F)CC1.Cl (single isomer, unassigned; (+))
Result: 1.93 L/kg

---

test: Drug level in Sprague-Dawley rat plasma at 0.3 mg/kg, po measured 2 hrs post dose by LC-MS/MS analysis; assay type: ADME, organism-based
Some compounds, each annotated with its measured concentration at 2 h.
Answer format: numeric, µM implied, no suffix.

Task: Requested field: concentration at 2 h. Item: `Cl.Cn1cc(S(=O)(=O)N2CCN(C3(CNC(=O)c4ccc(C(F)(F)F)cc4Cl)CCC(F)(F)CC3)CC2)nn1`
Result: 0.018

Task: Consider next the compound CC(NC(=O)c1ccc(C(F)(F)F)cc1Cl)C1(N2CCN(S(=O)(=O)c3cn(C)nn3)CC2)CCC(F)(F)CC1.Cl (single isomer, unassigned; (+)) in the same way.
Result: 0.0032

---

assay: Drug level in cynomolgus monkey CSF at 10 mg/kg, po measured at 12 hrs post dose by LC-MS/MS analysis; format: ADME, organism-based, Macaca fascicularis, Cerebrospinal fluid; conditions: read-out: Drug uptake
ENDPOINT: concentration at 12 h (ng/mL)
Answer format: numeric, ng/mL implied, no suffix.

Task: Requested field: concentration at 12 h. Item: CC(NC(=O)c1ccc(C(F)(F)F)cc1Cl)C1(N2CCN(S(=O)(=O)c3cn(C)nn3)CC2)CCC(F)(F)CC1.Cl (single isomer, unassigned; (+))
Result: 5

---

assay: Drug level in Sprague-Dawley rat plasma at 1 mg/kg, po measured 2 hrs post dose by LC-MS/MS analysis; format: ADME, organism-based
ENDPOINT: concentration at 2 h (nM)
Answer format: numeric, nM implied, no suffix.

{"COMPOUND": "Cl.Cn1cc(S(=O)(=O)N2CCN(C3(CNC(=O)c4ccc(C(F)(F)F)cc4Cl)CCC(F)(F)CC3)CC2)nn1", "ENDPOINT": "concentration at 2 h", "READOUT_UNIT": "nM", "REPORTED": 76.9}

# context switch: different compound, same concentration at 2 h
Task: Requested field: concentration at 2 h. Item: CC(NC(=O)c1ccc(C(F)(F)F)cc1Cl)C1(N2CCN(S(=O)(=O)c3cn(C)nn3)CC2)CCC(F)(F)CC1.Cl (single isomer, unassigned; (+))
Result: 11.4

---

experiment: Drug level in Sprague-Dawley rat brain at 1 mg/kg, po measured 2 hrs post dose by LC-MS/MS analysis; type: ADME, organism-based; conditions: read-out: Drug uptake
ENDPOINT: concentration at 2 h (nM)
Answer format: numeric, nM implied, no suffix.

{"COMPOUND": "Cl.Cn1cc(S(=O)(=O)N2CCN(C3(CNC(=O)c4ccc(C(F)(F)F)cc4Cl)CCC(F)(F)CC3)CC2)nn1", "ENDPOINT": "concentration at 2 h", "READOUT_UNIT": "nM", "REPORTED": 13.1}

# context switch: different compound, same concentration at 2 h
Task: Requested field: concentration at 2 h. Item: CC(NC(=O)c1ccc(C(F)(F)F)cc1Cl)C1(N2CCN(S(=O)(=O)c3cn(C)nn3)CC2)CCC(F)(F)CC1.Cl (single isomer, unassigned; (+))
Result: 3.6

---

Some compounds, each annotated with its measured remaining at 0.25 h, 3 µM.
assay: Metabolic stability in human liver microsomes assessed as parent compound remaining at 3 uM incubated for 15 mins by LC-MS analysis; assay type: ADME, Microsome; settings: liver microsomes, read-out: Stability
Returns: string containing the numeric result and its unit.

{"CPD_SMILES": "Cn1cnc(S(=O)(=O)N2CCN(C3(CNC(=O)c4c(Cl)cccc4OC(F)(F)F)CCC(F)(F)CC3)CC2)c1", "REPORTED": "9.2%"}
{"CPD_SMILES": "Cn1cnc(S(=O)(=O)N2CCN(C3(CNC(=O)c4ccc(C(F)(F)F)cc4Cl)CCC(F)(F)CC3)CC2)c1", "REPORTED": "60%"}
{"CPD_SMILES": "Cn1cnc(S(=O)(=O)N2CCN(C3(CNC(=O)c4c(F)cccc4F)CCC(F)(F)CC3)CC2)c1", "REPORTED": "72%"}
{"CPD_SMILES": "Cn1cc(S(=O)(=O)N2CCN(C3(CNC(=O)c4ccc(C(F)(F)F)cc4C(F)(F)F)CCC(F)(F)CC3)CC2)nn1", "REPORTED": "64%"}
{"CPD_SMILES": "Cn1cnc(S(=O)(=O)N2CCN(C3(CNC(=O)c4ccc(F)cc4Cl)CCC(F)(F)CC3)CC2)c1", "REPORTED": "85%"}

Task: Requested field: remaining at 0.25 h, 3 µM. Item: `Cn1cnc(S(=O)(=O)N2CCN(C3(CNC(=O)c4c(Cl)cccc4Cl)CCC(F)(F)CC3)CC2)c1`
Result: 22%

Task: Consider next the compound `Cn1cc(S(=O)(=O)N2CCN(C3(CNC(=O)c4c(Cl)cccc4Cl)CCC(F)(F)CC3)CC2)nn1` in the same way.
Result: 33%

Task: Consider next the compound `Cn1cc(S(=O)(=O)N2CCN(C3(CNC(=O)c4c(F)cccc4F)CCC(F)(F)CC3)CC2)nn1` in the same way.
Result: 64%

Task: Consider next the compound `Cn1cc(S(=O)(=O)N2CCN(C3(CNC(=O)c4ccc(Cl)cc4Cl)CCC(F)(F)CC3)CC2)nn1` in the same way.
Result: 46%

Task: Consider next the compound `Cn1cc(S(=O)(=O)N2CCN(C3(CNC(=O)c4c(Cl)cccc4OC(F)(F)F)CCC(F)(F)CC3)CC2)nn1` in the same way.
Result: 24%

Task: Consider next the compound `Cn1cc(S(=O)(=O)N2CCN(C3(CNC(=O)c4ccc(F)cc4Cl)CCC(F)(F)CC3)CC2)nn1` in the same way.
Result: 69%

Task: Consider next the compound `Cn1cc(S(=O)(=O)N2CCN(C3(CNC(=O)c4ccc(Cl)cc4Cl)CCCCC3)CC2)nn1` in the same way.
Result: 0%

Task: Consider next the compound `Cn1cnc(S(=O)(=O)N2CCN(C3(CNC(=O)c4ccc(Cl)cc4Cl)CCC(F)(F)CC3)CC2)c1` in the same way.
Result: 30%

Task: Consider next the compound `Cl.Cn1cc(S(=O)(=O)N2CCN(C3(CNC(=O)c4ccc(C(F)(F)F)cc4Cl)CCC(F)(F)CC3)CC2)nn1` in the same way.
Result: 60%

---

assay: Cmax in cynomolgus monkey plasma at 5 mg/kg, po by LC-MS/MS analysis; format: ADME, organism-based, Macaca fascicularis; parameters: dose 5 mg/kg, route oral
ENDPOINT: Cmax

Task: Requested field: Cmax. Item: CC(NC(=O)c1ccc(C(F)(F)F)cc1Cl)C1(N2CCN(S(=O)(=O)c3cn(C)nn3)CC2)CCC(F)(F)CC1.Cl (single isomer, unassigned; (+))
Result: 105 ng/mL

---

test: Drug level in Sprague-Dawley rat brain at 100 mg/kg, po measured 2 hrs post dose by LC-MS/MS analysis; format: ADME, organism-based; settings: read-out: Drug uptake
ENDPOINT: concentration at 2 h (nM)
Answer format: numeric, nM implied, no suffix.

Task: Requested field: concentration at 2 h. Item: `Cl.Cn1cc(S(=O)(=O)N2CCN(C3(CNC(=O)c4ccc(C(F)(F)F)cc4Cl)CCC(F)(F)CC3)CC2)nn1`
Result: 46.3
